System: NCI-H460
Assay: NCI tumour cell line growth inhibition, 48 h
Activity calls are given as the source filed them. No stated cut-off is given here; in the data, active = GI50 up to about 1.1 µM and inactive = higher.
Thanks in advance; please answer with one of these: class 1 = active, class 0 = inactive

compound: CC(=O)O[C@H]1C[C@H](O[C@H]2[C@@H](O)C[C@H](O[C@H]3[C@@H](O)C[C@H](O[C@H]4CC[C@@]5(C)[C@H](CC[C@@H]6[C@@H]5C[C@@H](O)[C@]5(C)[C@@H](C7=CC(=O)OC7)CC[C@]65O)C4)O[C@@H]3C)O[C@@H]2C)O[C@H](C)[C@H]1O[C@@H]1O[C@H](CO)[C@@H](O)[C@H](O)[C@H]1O [LANATOSIDE C]
target_under_test: NCI-H460
category: class 1

Lab note: next compound to report on.
Call for entry CCSc1nn(-c2c3ccccc3nc3ccccc23)c(=S)s1 : class 0

----------
System: CCRF-CEM
Assay: NCI tumour cell line growth inhibition, 48 h
The source made the active and inactive calls. Cut-off read from the data, not from the text of the source: active = GI50 up to about 1.1 µM and inactive = higher.
Hello, when you answer, please use one of the following outcomes: active, inactive

compound: [C-]#[N+]C1(C(=O)OCC)CC1
category: inactive

What did this assay record as the result for O=C1C(O)=C(C(C2=C(O)C(=O)c3ccccc3C2=O)c2ccc(Cl)cc2)C(=O)c2ccccc21 ? inactive

What outcome does the record of this test show for O=C1C(Br)=CC2(C=C1Br)CCNC1=C2C(=O)c2ccccc2C1=O ? inactive

Could you check what this test reported for C=CCC1(C)CCCCC1(O)C[S+]([O-])c1ccccc1 (centres undefined) ? inactive

// outcome(item) with item = O=C(N1CCOCC1)C1(c2ccccc2)CCNCC1 active

----------
Test system: T47D
Assay: NCI tumour cell line growth inhibition, 48 h
Calls of active or inactive are those of the source. Rule as the data show it: active = GI50 up to about 1.1 µM and inactive = higher.
Property: GI50; scope: individual molecules

The examples below pair each entry with its known result.
molecule: CC(=O)CC1(OC(=O)C2C(C=C(C)C)C2(C)C)C(=O)Nc2ccccc21 (centres undefined)
target_under_test: T47D
GI50: > 100 µM (inactive)
--
molecule: CCOC(=O)NC(NNc1ccc([N+](=O)[O-])cc1[N+](=O)[O-])(C(F)(F)F)C(F)(F)F
target_under_test: T47D
GI50: 35.1 µM (inactive)
--
molecule: N#C/C(=C\N1CCNC1=S)C(=O)c1ccc2ccccc2c1
target_under_test: T47D
GI50: 67 µM (inactive)
--
molecule: [C-]#[N+]C1(C(=O)OCC)CC1
target_under_test: T47D
GI50: > 100 µM (inactive)
--
molecule: CC(CC[C@@H](O)C(C)(C)O)C1[C@@H](O)CC2(C)C3CC(O)C4C(C)(C)[C@@H](OC5OC(CO)C(O)C(O)C5O)CC[C@@]45C[C@@]35CC[C@]12C (some centres undefined)
target_under_test: T47D
GI50: > 10 µM (inactive)

Field request: GI50 | item: CSc1ccc2c(c1)C(N1CCN(C)CC1)Cc1ccccc1S2 (centres undefined) 8.04 µM (inactive)

Need GI50 of CCOC(=O)c1ccc(NC2Oc3cc4c(cc3C(c3cc(OC)c(OC)c(OC)c3)C2C)OCO4)cc1 (centres undefined) , thanks. 0.486 µM (active)

// lookup GI50 for O=C(/C(Cl)=C/c1ccccc1)c1ccccc1 4.07 µM (inactive)

Quick check: GI50 of c1cncc(CC2(c3cc4ccccc4[nH]3)OCCO2)c1 ? > 100 µM (inactive)

----------
Tested on: DU-145
Assay: NCI tumour cell line growth inhibition, 48 h
The source made the active and inactive calls. Rule as the data show it: active = GI50 up to about 1.1 µM and inactive = higher.
endpoint: GI50

Check out these entries, answers already filled in.
compound: CC(C)(C)OC(=O)NCCC1CNc2ccccc21 (stereo unspecified)
GI50: > 100 µM (inactive)
//
compound: CSc1[nH]nc(N)c1C(=O)Nc1ccc(C)cc1
GI50: 22.3 µM (inactive)
//
compound: COc1ccc(Cc2nc3cc(C(F)(F)F)ccc3n2C[C@@H]2CCCN3CCCCC23)cc1 (stereo partly specified)
GI50: 11 µM (inactive)
//
compound: CCCCCCCCC[C@@H]1C[C@@H]2CCC3C(C(=O)OCCCCNC(=O)OCc4ccccc4)=C(C)N=C(N1)N32 (stereo partly specified)
GI50: 4.76 µM (inactive)
//
compound: COc1ccccc1/C=C/C1=NN(c2cccc(S(=O)(=O)O)c2)C2(C1)C(Cl)C(=O)N2c1nc2ccccc2s1 (stereo unspecified)
GI50: 67 µM (inactive)

Quick one: GI50 of CNC(=O)N(CCC#N)CCN(C(=O)N(C)C)c1ccccc1 ? > 100 µM (inactive)

----------
System: EKVX
Assay: NCI tumour cell line growth inhibition, 48 h
Activity calls are given as the source filed them. Rule as the data show it: active = GI50 up to about 1.1 µM and inactive = higher.
The molecules listed here are annotated with their GI50.

Before answering, review these 5 worked examples.
molecule: C/C(=N\O)c1cccc(Nc2nc3ccccc3c3occc23)c1
GI50: 12.7 µM (inactive)
//
molecule: COc1ccc(N2C(=O)/C(=C/c3ccc(N(CCC#N)CCC#N)cc3C)N=C2c2cc([N+](=O)[O-])ccc2Cl)cc1
GI50: 14.5 µM (inactive)
//
molecule: COc1cc2c(cc1Cl)[n+]([O-])c(C#N)c(N1CCN(c3ccc([N+](=O)[O-])cc3)CC1)[n+]2[O-]
GI50: 28.6 µM (inactive)
//
molecule: O=c1cc(N2CCCC2)[nH]c(=O)n1-c1ccc(F)cc1
GI50: > 100 µM (inactive)
//
molecule: COc1cc(/C=C/C2=NN(c3cccc(S(=O)(=O)O)c3)C3(C2)C(Cl)C(=O)N3c2nc3ccccc3s2)ccc1O (centres undefined)
GI50: 20.3 µM (inactive)

Given the molecule Cc1nc(NC(=S)NC(=O)c2ccc(Cl)c(Cl)c2)sc1C(=O)/C=C/c1ccccc1[N+](=O)[O-] , what is its reported GI50? 32.7 µM (inactive)

----------
Here, each record is paired with measured GI50 data.
Test system: MOLT-4
Experiment: NCI tumour cell line growth inhibition, 48 h
Activity calls are given as the source filed them. Rule as the data show it: active = GI50 up to about 1.1 µM and inactive = higher.

compound: [C-]#[N+]C1(C(=O)OCC)CC1
result: > 100 µM (inactive)

compound: O=C1CCCC2C(O)CCC[C@H]12 (stereo partly specified)
result: > 100 µM (inactive)

compound: O=C(N/N=C\C=C\c1ccc([N+](=O)[O-])o1)C(=O)N/N=C\C=C\c1ccc([N+](=O)[O-])o1
result: 24.1 µM (inactive)

Recorded GI50 for CS/C(=N/S(=O)(=O)c1ccc(Cl)cc1)NCCCN/C(=N\S(=O)(=O)c1ccc(Cl)cc1)SC , please? 4.8 µM (inactive)

Item CC(=O)OCCn1c(Cc2ccc(C)cc2)nn(C(C)=O)c1=O has what recorded GI50? > 100 µM (inactive)

What value of GI50 has been reported for the following compound? C=CCC1(C)CCCCC1(O)C[S+]([O-])c1ccccc1 (stereo unspecified) > 100 µM (inactive)

----------
GI50 reference
Tested on: SF-295
Assay: NCI tumour cell line growth inhibition, 48 h
Activity calls are given as the source filed them. Rule as the data show it: active = GI50 up to about 1.1 µM and inactive = higher.

molecule: N#CCCN(CCC#N)c1ccc(/C=N\c2nc(-c3ccccc3)cs2)cc1
target_under_test: SF-295
endpoint: GI50
result: 45.7 µM (inactive)

GET /values?readout=GI50&item= O=C(/N=S(/NC(=O)c1ccccc1)C(Cl)(Cl)Cl)c1ccccc1 (stereo unspecified) 9.25 µM (inactive)

GI50 lookup needed for CCOC(=O)c1sc2nc(SC)nc3c2c1NCN3c1ccc2c(c1)OCCCO2 , thanks. 1.67 µM (inactive)

# GI50 lookup, item O=C(CCCCCNC(=O)c1ccc(Cl)cc1)NO 8.91 µM (inactive)

If you can, please state the reported GI50 value of C/C(CC(=O)Nc1cc(C)ccc1C)=N/N=C(N)N . > 100 µM (inactive)

GI50 lookup needed for CN(C)CCCN1N=Nc2cccc3cccc1c23 , thanks. > 90.8 µM (inactive)

----------
GI50 values, listed per item
System: U-251
Assay: NCI tumour cell line growth inhibition, 48 h
Active and inactive are the calls of the source. Rule as the data show it: active = GI50 up to about 1.1 µM and inactive = higher.

compound: C=CCSC1=N/C(=C\c2ccco2)C(=O)N1CC=C
GI50: > 100 µM (inactive)
//
compound: O=C1C[C@@H]2C(COC(=O)c3ccccc3)N(OCc3ccccc3)C[C@@H]2O1 (stereo partly drawn)
GI50: > 100 µM (inactive)
//
compound: O=C(O)Cc1cc(F)ccc1C(=O)O
GI50: > 100 µM (inactive)

Return reported GI50; argument: Oc1[nH]c(Nc2cc(Cl)cc(Cl)c2)nc2ncnc1-2 > 75 µM (inactive)

Look up GI50: CC(C)(C)OC(=O)NCCC1CNc2ccccc21 (stereo not drawn) > 100 µM (inactive)

Value lookup for GI50; key = CCSc1nn(-c2c3ccccc3nc3ccccc23)c(=S)s1 > 100 µM (inactive)

Fill in the blank: the reported GI50 of O=C(N1CCOCC1)C1(c2ccccc2)CCNCC1 is ____. > 100 µM (inactive)

So what's the measured GI50 for this one? CCCCCCOc1ccc(NC2=C(Cl)C(=O)c3ncccc3C2=O)cc1 1.61 µM (inactive)

I am curious: what GI50 value has been reported for O=C1Nc2ccccc2Cn2c1cc1oc(-c3ccccc3)cc12 ? 16 µM (inactive)

May I ask what GI50 has been recorded for COc1ccc2c(=O)c(-c3cc(OC)c(OC)cc3OC)coc2c1 ? 2.19 µM (inactive)

Form field: reported GI50 of O=[N+]([O-])c1ccc2[nH]c3c(-c4ccccc4)nccc3c2c1 19.5 µM (inactive)

# lookup: GI50 of O=S(=O)(O)SC/C=C\CSS(=O)(=O)O 61.2 µM (inactive)

Please report the recorded GI50 for O=C(O)C1CCCCN1C(=O)Cc1c[nH]c2ccccc12 (stereo not drawn) . > 100 µM (inactive)

Reported GI50, compound O=C(Nc1ccc(Cl)cc1)NS(=O)(=O)c1coc2ccccc2c1=O : ____ > 10 µM (inactive)
